# Test system: HL-60
# procedure text: Cytoprotection against human HL60 cells assessed as inhibition of H2O2-induced cell death pretreated for 1 hr followed by H2O2 stimulation measured after 3 hrs by p-iodonitrotetrazolium violet dye based LDH assay
# Assay type: functional
pIC50: −log10 of the molar value.
true (1) means recorded pIC50 is 6 or above; false (0) means it is below 6.

Below are worked cases with known answers.
structure_notation=CN(C)CCCNC1=C(c2cn(C)c3ccccc23)C(=O)N(C)C1=O class_name="true (1)"
structure_notation=CN1C(=O)C(NCc2ccccc2Cl)=C(c2cn(C)c3ccccc23)C1=O class_name="false (0)"
structure_notation=CCCCN1C(=O)C(NCCC)=C(c2cn(C)c3ccccc23)C1=O class_name="true (1)"
structure_notation=CCCNC1=C(c2cn(C)c3ccccc23)C(=O)N(C(C)C)C1=O class_name="true (1)"
structure_notation=CN1C(=O)C(c2cn(C)c3ccccc23)=C(N2CCCC2)C1=O class_name="false (0)"
structure_notation=CN1C(=O)C(NC2CC2)=C(c2cn(C)c3ccccc23)C1=O class_name="false (0)"

Shift focus to the following entry.
Evaluate CN1C(=O)C(NCC2CCCCC2)=C(c2cn(C)c3ccccc23)C1=O : pIC50 at minimum 6?
true (1)
